System: HaCaT keratinocytes
ASSAY NOTES: Kinetics of melatonin metabolism in untreated keratinocytes (intracellular levels)
Format: in vitro ADME, human
CONDITION PARAMETERS: not preincubated with melatonin, no UV, cultivation for 24 hrs
# intracellular level in untreated keratinocytes after 24 hrs annotations
MEASUREMENT TYPE: intracellular level in untreated keratinocytes after 24 hrs

>  <COMPOUND>
COc1ccc2[nH]cc(CCNC(C)=O)c2c1

>  <MEASURED VALUE>
65.0 pmoles/1000 cells

$$$$
>  <COMPOUND>
COc1cc2c(CCNC(C)=O)c[nH]c2cc1O [6-hydroxymelatonin]

>  <MEASURED VALUE>
16.8 pmoles/1000 cells

$$$$
>  <COMPOUND>
COc1ccc(NC=O)c(C(=O)CCNC(C)=O)c1

>  <MEASURED VALUE>
33.6 pmoles/1000 cells

$$$$
>  <COMPOUND>
COc1ccc2[nH]c(O)c(CCNC(C)=O)c2c1 [2-hydroxymelatonin]

>  <MEASURED VALUE>
20.4 pmoles/1000 cells

$$$$

Data origin, for the record: patent US20070218023A1
